Assay: Primary qHTS for delayed death inhibitors of the malarial parasite plastid, 48 hour incubation
Settings: P. falciparum luciferase growth in erythrocytes; series mostly up to 28.7 µM
Source text: The goal of this screen is to discover new antimalarial compounds that act by inhibiting the development of the apicoplast in the malarial parasite Plasmodium falciparum. […] We have developed a cell-based assay that measures parasite growth based on the expression of an integrated copy of a firefly luciferase reporter. […] Growth inhibition is detected by a decrease in luciferase activity. […]
Hit rate of the full screen: of about 310,000 compounds, about 18,000 (5.8%) were called active. Not shown: some 22% with an inconclusive outcome. Calls come from the whole dose curve; as a rule, active = well fitted inhibition curve with a large enough effect; inconclusive = small, poorly fitted or top-dose-only effect, or another doubt; inactive = no such curve, though single readings can be large or run the other way. The list comes from a sample in which actives are over-represented; it also holds close analogues and randomly drawn compounds.
Mark one answer only. Choices: active, inactive

These solved cases illustrate the format of a correct answer.
Compound | Assigned category
CC(C)COC(=O)n1c(=O)oc2ccc(S(=O)(=O)N3CCCCC3)cc21 | active
COc1ccc(CCNC(=O)COC(=O)C2CC2C)cc1 (stereo unspecified) | inactive
C=CCn1c(N)cc(=O)nc1SCC(=O)Nc1cccc2ccccc12 | inactive
CCOC(=O)N1CCN(C(=O)c2cn(C)c3ccc(S(=O)(=O)N4CCCC4)cc3c2=O)CC1 | inactive
Cc1cccc(C)c1NC(=O)CSc1nc2c([nH]1)c(=O)n(C)c(=O)n2C | inactive
Cc1ccccc1-n1c(SCC(=O)Nc2cccc3ccccc23)nc(O)cc1=O | active

GET /call?item= Cc1ccnc(N2CCCC(C(=O)NC3CC3)C2)n1 (stereo unspecified) returns the recorded outcome of this test.
inactive

GET /call?item= "CN(Cc1ccccc1)S(=O)(=O)c1nnc(NC(=O)c2ccccc2F)s1" returns the recorded outcome of this test.
inactive

GET /call?item= "COc1ccc(NS(=O)(=O)c2cccc3nsnc23)cc1Cl" returns the recorded outcome of this test.
inactive

GET /call?item= "O=C(NCC(=O)N1CCN(c2ccccc2F)CC1)c1cccs1" returns the recorded outcome of this test.
inactive

GET /call?item= "COc1ccc(C(=O)NCc2nnc(SCC(=O)Nc3cccc(OC)c3)o2)cc1" returns the recorded outcome of this test.
inactive

* * *

experiment: Primary qHTS for delayed death inhibitors of the malarial parasite plastid, 48 hour incubation; note: potency is the fitted concentration of half-maximal effect; details: P. falciparum luciferase growth in erythrocytes; series mostly up to 28.7 µM
Screen size: about 310,000 compounds; about 18,000 (5.8%) were called active. About 22% were inconclusive and are not listed. The list comes from a sample in which actives are over-represented; it also holds close analogues and randomly drawn compounds.
Parameter: Potency

Solved cases (4 shown):
Substance smiles | Potency
Cc1cc(C)c(CN2CCN(C(=O)Cn3ccc(NC(=O)OCc4ccccc4)nc3=O)CC2)c(C)c1 | inactive
CCCCCN(C(=O)CCC(=O)OCC(=O)NCc1ccc(OC)cc1)c1c(N)n(CCCC)c(=O)[nH]c1=O | inactive
CCCCN(C(=O)CCNC(=O)NC12CC3CC(CC(C3)C1)C2)c1c(N)n(CCCC)c(=O)[nH]c1=O | 13.1 µM (active)
COC(=O)[C@@H](Cc1ccccc1)NC(=O)NCCc1ccccc1 | inactive

Moving on to another compound below.
Tell me the measured Potency of "COc1ccc(-c2cc(C(=O)N3CCN(c4ccc(F)cc4)CC3)no2)cc1" , please.
inactive

* * *

assay: Primary qHTS for delayed death inhibitors of the malarial parasite plastid, 48 hour incubation; note: potency is the fitted concentration of half-maximal effect; details: P. falciparum luciferase growth in erythrocytes; series mostly up to 28.7 µM
The campaign covered roughly 310,000 compounds. About 18,000 (5.8%) were called active. Roughly 22% stayed inconclusive and do not appear here. The full list was thinned out, with actives kept by preference.
Parameter: Potency

Solved cases (4 shown):
Compound | Potency
Cc1ccc(C23CC4CC(CC(C(=O)NCC(=O)O)(C4)C2)C3)cc1 | inactive
CN(CCO)Cc1csc2ccc(Br)cc12 | inactive
Cc1ccc(-c2csc(NNC(=O)c3ccccc3)n2)cc1 | 2.33 µM (active)
CNC(=O)O/N=C(\N)Cc1csc2ccc(Cl)cc12 | 3.7 µM (active)

Tell me the measured Potency of "CN(CCc1ccccn1)C(=O)c1ccc(OC2CCN(CCc3ccccc3)CC2)cc1" , please.
inactive

Tell me the measured Potency of "O=C(CCNC(=O)c1ccc([N+](=O)[O-])cc1)NC1CCCCC1" , please.
inactive

Tell me the measured Potency of "O=C(NCc1cccnc1)c1cc(S(=O)(=O)N2CCOCC2)c(Cl)cc1Cl" , please.
inactive

Tell me the measured Potency of Cc1cc(=O)n2nc(N3CCCC(C(=O)NCc4ccc(Cl)cc4)C3)sc2n1 (stereo not given) , please.
inactive

Tell me the measured Potency of "O=C(CCNC(=O)c1ccc(Br)cc1)Nc1cccc(S(=O)(=O)N2CCCCC2)c1" , please.
inactive

Tell me the measured Potency of "COc1cc(NC(=O)CSC(=S)N2CCCC2)c(OC)cc1Cl" , please.
inactive
